Experiment: Solubility after 24 hrs in Fasted State Simulated Intestinal Fluid (FaSSIF)
Format: physicochemical
Conditions: Fasted State Simulated Intestinal Fluid (FaSSIF), thermodynamic from solid, 24 hrs at 37° C., nominal concentration 1 mg/mL (as free base)
Items are presented alongside their recorded solubility at 24 h.

In the examples that follow, each entry is paired with its recorded solubility at 24 h.
COCc1nc(C(=O)NCc2c(-n3cc(C)nn3)ccc(OC)c2F)cn1Cc1ccc2c(c1)CN(C(C)C)C2 [Example 147] :: > 1000 µg/mL
COc1ccc(-n2cc(C)nn2)c(CNC(=O)c2cncc(Cc3ccc4c(c3)CN(C)CC4)c2)c1F [Example 161] :: > 1000 µg/mL
COc1ccc(-n2cc(C)nn2)c(CNC(=O)c2cn(Cc3ccc4c(n3)CCN(C)C4)nc2C(F)(F)F)c1F [Example 138] :: > 1000 µg/mL

Looking up COCc1nn(Cc2ccc3c(c2)CN(C)CC3)cc1C(=O)NCc1c(-n2cnc(C(F)F)n2)ccc(OC)c1Cl [Example 156] , I see its solubility at 24 h listed as > 1000 µg/mL
